For each entry below, report its ELISA signal value.
- Subject of test: T1, human LIF protein (human, UniProt P15018 23-202)
- T1 construct: Bought recombinant protein (Sino Biological / Yiqiao Shenzhou 14890-HNAH) in most assays; also called recombinant human LIF protein; rhLIF
- Measurement notes: ELISA, antigen coated 0.5 ug/ml, 293S supernatant heated 70 C 5 min, antibody 0.04 ug/mL
# answer = number (no unit)

Task item: Check the records and state ELISA signal for H1L3 (antibody, human IgG1, kappa, N297A, V domains shown, Humanized, human IgG1 / kappa) VH: EVMLLESGGGLVQPGGSLRLSCAASGFIFSSYAMSWVRQAPGTGLEWVATISSGGSNTYSPDTVKGRFTISRDNSKNTLYLQMNSLRAEDTAVYYCARYYGYYFDFWGQGTLLTVSS VL: DIHMTQSPSSLSASVGDRVTITCRASENIYSYLAWYQQKPGKSPQLLVYNAKTLAEGVPSRFSGSGSGTQFTLTISSLQPEDFATYYCQHHYVTPLTFGQGTKLEIKR
Reply: 4980

Task item: Tell me ELISA signal reported for H3L3 (antibody, human IgG1, kappa, N297A, V domains shown, Humanized, human IgG1 / kappa) VH: EVMLVESGGGLVQPGGSLRLSCAASGFIFSSYAMSWVRQAPETRLEWVATISSGGSNTYSPDTVKGRFTISRDNSKNTLYLQMNSLRAEDTAMYYCARYYGYYFDFWGQGTLLTVSS VL: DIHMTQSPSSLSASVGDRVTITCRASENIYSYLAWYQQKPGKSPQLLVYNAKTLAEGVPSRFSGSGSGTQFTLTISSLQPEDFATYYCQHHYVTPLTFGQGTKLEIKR
Reply: 5390

Task item: Return value of ELISA signal for input 38E HuH1L4 (antibody, human IgG1, kappa, N297A, V domains shown, Humanized, human IgG1 / kappa) VH: EVMLLESGGGLVQPGGSLRLSCAASGFIFSSYAMSWVRQAPGTGLEWVATISSGGSNTYSPDTVKGRFTISRDNSKNTLYLQMNSLRAEDTAVYYCARYYGYYFDFWGQGTLLTVSS VL: DIHMTQSPSSLSASVGDRVTITCRASENIYSYLAWYQQKQGKSPQLLVYNAKTLAEGVPSRFSGSGSGTQFTLKINSLQPEDFATYYCQHHYVTPLTFGQGTKLEIKR , no commentary.
Reply: 5670

Task item: Give the reported ELISA signal for this binder. H2L3 (antibody, human IgG1, kappa, V domains shown, Humanized, human IgG1 / kappa) VH: EVMLVESGGGLVQPGGSLRLSCAASGFIFSSYAMSWVRQAPGTGLEWVATISSGGSNTYSPDTVKGRFTISRDNSKNTLYLQMNSLRAEDTAMYYCARYYGYYFDFWGQGTLLTVSS VL: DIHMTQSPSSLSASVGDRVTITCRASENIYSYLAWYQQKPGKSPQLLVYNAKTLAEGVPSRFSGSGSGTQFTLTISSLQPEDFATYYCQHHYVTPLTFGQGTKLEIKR
Reply: 4870

Task item: Supply recorded ELISA signal for 38E HuH2L4 (antibody, human IgG1, kappa, V domains shown, Humanized, human IgG1 / kappa) VH: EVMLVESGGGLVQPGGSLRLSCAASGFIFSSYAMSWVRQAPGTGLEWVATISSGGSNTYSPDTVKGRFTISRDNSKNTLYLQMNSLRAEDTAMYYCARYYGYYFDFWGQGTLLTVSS VL: DIHMTQSPSSLSASVGDRVTITCRASENIYSYLAWYQQKQGKSPQLLVYNAKTLAEGVPSRFSGSGSGTQFTLKINSLQPEDFATYYCQHHYVTPLTFGQGTKLEIKR here.
Reply: 5700
